Biological target: BACE1 (Homo sapiens (Human), UniProt P56817)
Sequence (P56817 46-501): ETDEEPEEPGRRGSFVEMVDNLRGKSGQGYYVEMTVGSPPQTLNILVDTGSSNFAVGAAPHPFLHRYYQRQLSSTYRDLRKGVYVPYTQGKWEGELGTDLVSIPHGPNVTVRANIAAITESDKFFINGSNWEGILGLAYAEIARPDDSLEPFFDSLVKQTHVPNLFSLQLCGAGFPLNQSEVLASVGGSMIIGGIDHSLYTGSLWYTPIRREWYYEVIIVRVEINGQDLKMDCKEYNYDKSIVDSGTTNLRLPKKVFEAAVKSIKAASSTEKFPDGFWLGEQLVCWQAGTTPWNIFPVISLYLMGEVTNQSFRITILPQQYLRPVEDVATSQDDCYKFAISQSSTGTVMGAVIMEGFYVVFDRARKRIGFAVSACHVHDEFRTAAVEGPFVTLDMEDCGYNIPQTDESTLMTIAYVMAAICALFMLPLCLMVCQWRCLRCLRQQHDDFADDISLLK
Test: BACE1 AlphaScreen assay (displacement of biotinylated BACE1 binding site probe)
Conditions: read-out: BACE1 AS IC50
// values below are reported pIC50
Units for pIC50: none; it is -log10 of a concentration expressed in mol/L.

[
  {
    "molecule": "C[C@@]1(c2cc(NC(=O)C3CC3)ccc2F)CC2(CCC(F)(F)CC2)OC(N)=N1",
    "pIC50": 6.10
  },
  {
    "molecule": "CCCn1cc(-c2ccc(F)c(C3(C)CC4(CCOCC4)OC(N)=N3)c2)cn1 (stereo not shown)",
    "pIC50": 5.78
  },
  {
    "molecule": "C[C@@]1(c2cc(NC(=O)c3ccc(Cl)cn3)ccc2F)CC2(CCC(F)(F)CC2)OC(N)=N1",
    "pIC50": 8.35
  }
]

// query Give the measured pIC50 of CC#Cc1cncc(-c2csc(C3(C)CC4(CCC4)OC(N)=N3)c2)c1 (stereo not shown) .
// result 7.52

// query For C[C@@]1(c2cc(NC(=O)c3ccc(F)cn3)ccc2F)CC2(CCC2)SC(N)=N1 , what is its reported pIC50?
// result 8.10

// query Given the entry CC#Cc1cncc(-c2csc(C3(C)CC4(CCOCC4)OC(N)=N3)c2)c1 (stereo not shown) , report its measured pIC50.
// result 7.16

// query Reported pIC50 for C[C@@]1(c2cc(/C=C/c3ccc(Cl)cc3)ccc2F)CC2(CCC2)OC(N)=N1 : what is it?
// result 6.29

// query Give the measured pIC50 of C[C@@]1(c2cc(NC(=O)c3ncc(Cl)cc3F)ccc2F)CC2(CCC(F)(F)CC2)OC(N)=N1 .
// result 8.05

// query Recorded pIC50 of C[C@@]1(c2cc(NC(=O)c3ccc(C4CC4)cn3)ccc2F)CC2(CCC(F)(F)CC2)OC(N)=N1 , please.
// result 7.77

// query Fill in: pIC50 of C[C@@]1(c2cc(NCc3ccc(F)cn3)ccc2F)CC2(CCC2)OC(N)=N1 is ___
// result 5.43

// query What does the record list as pIC50 for CC1(c2cc(-c3cncnc3)ccc2F)CC2(CCOCC2)OC(N)=N1 (stereo not shown) ?
// result 6.24

// query Consider the molecule shown here: C[C@@]1(c2cc(NC(=O)c3ccc(F)cn3)ccc2F)CC2(CCC(F)(F)CC2)OC(N)=N1 What is its recorded pIC50?
// result 8.06

// query Find the recorded pIC50 belonging to C[C@@]1(c2cc(NC(=O)c3ccc(F)cn3)ccc2F)CC2(COC2)SC(N)=N1 and report it.
// result 8.01

// query Which pIC50 is reported for this molecule? C[C@@]1(c2cc(NC(=O)c3ccc(Cl)cn3)ccc2F)CC2(CCOCC2)OC(N)=N1
// result 7.92

###

Target: BACE1 (Homo sapiens (Human))
Test: BACE1 FP assay
Assay type: biochemical
Conditions: pH 4.5
Field: label. Allowed values: Fulfilled (IC50 < 5 µM) or Not fulfilled (IC50 >= 5 µM).

Answered examples (5):
[
  {
    "molecule": "C[C@@]1(c2cc(NC(=O)c3ccc(C#N)cn3)ccc2F)N=C(N)OC2(CCC2)C1(F)F [Compound 9-163]",
    "measured_on": "BACE1 (Homo sapiens (Human))",
    "assigned_category": "Not fulfilled"
  },
  {
    "molecule": "C[C@@]1(c2cc(/C=C/c3ccc(Cl)cc3)ccc2F)CC2(CCC2)OC(N)=N1 [Compound 12-179]",
    "measured_on": "BACE1 (Homo sapiens (Human))",
    "assigned_category": "Fulfilled"
  },
  {
    "molecule": "C[C@]1(c2cc(NC(=O)c3ccc(F)cn3)ccc2F)CC2(CCOCC2)SC(N)=N1 [Compound 9-149]",
    "measured_on": "BACE1 (Homo sapiens (Human))",
    "assigned_category": "Not fulfilled"
  },
  {
    "molecule": "C[C@@]1(c2cc(/C=C/c3ccc(F)cc3)ccc2F)CC2(CCC2)OC(N)=N1 [Compound 12-177]",
    "measured_on": "BACE1 (Homo sapiens (Human))",
    "assigned_category": "Not fulfilled"
  },
  {
    "molecule": "CC#Cc1cncc(-c2csc(C3(C)CC4(CCC4)OC(N)=N3)c2)c1 (centres unmarked) [Compound 8-103]",
    "measured_on": "BACE1 (Homo sapiens (Human))",
    "assigned_category": "Fulfilled"
  }
]

// query Quick check: IC50 of C[C@@]1(c2cc(NC(=O)c3ccc(F)cn3)ccc2F)CC2(CCOCC2)OC(N)=N1 [Compound 9-128] under 5 µM?
// result Fulfilled

// query A record lists CC1(c2cc(NC(=O)c3ccc(C#N)cn3)ccc2F)N=C(N)OC2(CCC2)C1(F)F (centres unmarked) [Compound 9-161] . Is its IC50 below 5 µM?
// result Fulfilled

// query Please indicate whether the reported IC50 of CC1(c2cc(-c3cncnc3)ccc2F)CC2(CCOCC2)OC(N)=N1 (centres unmarked) [Compound 8-106] is strictly below 5 µM.
// result Not fulfilled
